The measured values listed here are drawn from patent US20250026813A1.

target: full soluble spike trimer of SARS-CoV-2 virus (stabilised, in-house) (SARS-CoV-2, UniProt P0DTC2 14-1208; P10104 458-484)
QUANTITY: pIC50
Interpret pIC50 as the negative base-10 log of the concentration measured in mol/L.

INPUT: Request the reported pIC50 associated with IMPI-056 (antibody, V domains shown) VH: EVQLVESGGGLIQPGGSLRLSCAASGLTVSSNYMNWVRQAPGKKLEWVSVIYSGGSTFYADSVRGRFTISRDNSKNTLFLQMNSLRAEDSAVYYCARDLGPYGVDVWGQGTTVTVSS VL: DIQLTQSPSFLSASVGDRVTITCWASQGISSYLAWYQQKPGKAPKLLIYAASTLQSGVPSRFSGSGSGTEFTLTISSLQPEDFATYYCQQLNSYPLTFGQGTRLEIK
OUTPUT: 8.43

INPUT: Request the reported pIC50 associated with IMPI-029 (antibody, V domains shown) VH: EVQLVESGGGLIQPGGSLRLSCAASGVTVSSNYMNWVRQAPGKGLEWVSVIYSGGSTYYADSVKGRFTISRDNSKNTLFLQMNSLRAEDSAVYYCARDLGPYGVDVWGQGTTVTVSS VL: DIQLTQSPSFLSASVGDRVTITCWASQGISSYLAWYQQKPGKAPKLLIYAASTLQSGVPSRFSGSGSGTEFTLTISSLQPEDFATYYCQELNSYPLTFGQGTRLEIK
OUTPUT: 8.48

INPUT: Request the reported pIC50 associated with IMPI-060 (antibody, V domains shown) VH: EVQLVESGGGLIQPGGSLRLSCAASGVTVSSNYMSWVRQAPGKGLEWVSVIYSGGSTFYADSVKGRFTISRDNSKNTLYLQMNSLRAEDTAVYYCARDLSYYGMDVWGQGTTVTVSS VL: DIQLTQSPSFLSASVGDRVTITCWASQGISSYLAWYQQKPGKAPKLLIYAASTLQSGVPSKFSGSGSGTEFTLTISSLQPEDFATYYCQQLNSYPSSFGQGTKLEIK
OUTPUT: 8.28
